system: EKVX; experiment: NCI tumour cell line growth inhibition, 48 h
Active and inactive are the calls of the source. No stated cut-off is given here; in the data, active = GI50 up to about 1.1 µM and inactive = higher.
Readout Label: GI50

Sample answers from the record:
compound=Cc1ccc2c(c1)nc(N)n[n+]2[O-] readout_label=GI50 test_value="> 100 µM (inactive)"
compound=Cc1cc(C)n(-c2nc(C)c(CCO)c(=O)[nH]2)n1 readout_label=GI50 test_value="> 100 µM (inactive)"
compound=COC(=O)c1cc(O)ccc1NC(=O)c1ccc(O)cc1 readout_label=GI50 test_value="> 100 µM (inactive)"

-- ask Which GI50 is listed for COC(=O)[C@]12CCC(=O)N1[C@H](C(=O)O)Cc1c2[nH]c2ccccc12 ?
-- reply > 100 µM (inactive)

-- ask Which GI50 is listed for Cc1c2c(n3c(nc4ccccc43)c1C#N)NCC2 ?
-- reply > 10 µM (inactive)

-- ask Which GI50 is listed for CC(=O)OC1CC[C@@]2(C)C(=CC[C@@H]3[C@@H]2CC[C@]2(C)Nc4c(cnn4-c4ccc(F)cc4)C[C@@H]32)C1 (stereo not given in full) ?
-- reply 33.5 µM (inactive)

-- ask Which GI50 is listed for O=c1[nH]c2cc(-c3ccccc3)nc-2nn1-c1c(Cl)cc(Cl)cc1Cl ?
-- reply 24.9 µM (inactive)

-- ask Which GI50 is listed for CCC1C(C#N)=C(N)OC2=C1C(=O)CC(C)(C)C2 (stereo not given) ?
-- reply > 100 µM (inactive)

-- ask Which GI50 is listed for COc1ccc(/C=c2\sc3nnc(CCC(=O)Nc4cccc(C(F)(F)F)c4)n3c2=O)cc1 ?
-- reply > 100 µM (inactive)
